Below, each of the compounds is paired with its reported pIC50 value.
study.target: JAK2 (Homo sapiens, UniProt O60674)
Construct: 5 μl of catalytic domain recombinant Kinase enzyme+Tyr peptide substrate (Invitrogen, Calif.)
Sequence (O60674 849-1124 limits assumed): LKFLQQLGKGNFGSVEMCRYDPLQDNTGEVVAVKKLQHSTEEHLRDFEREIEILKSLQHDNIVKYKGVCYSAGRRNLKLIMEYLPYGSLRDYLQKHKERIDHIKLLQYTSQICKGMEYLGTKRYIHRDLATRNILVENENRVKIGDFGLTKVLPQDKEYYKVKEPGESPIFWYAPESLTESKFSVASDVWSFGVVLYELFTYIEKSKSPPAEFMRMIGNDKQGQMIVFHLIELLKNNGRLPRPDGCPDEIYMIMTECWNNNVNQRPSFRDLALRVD
test.method.notes: Z'-LYTE kinase assay, JAK2 tyrosine phosphorylation activity
pIC50: −log10 of the molar value.

Please review the following examples before continuing.
COCC(=O)Nc1cccc(Nc2ncc(C(N)=O)c(N[C@@H](C)c3ccccc3)n2)c1
6.00 to 7.00
CC(=O)Nc1cc(Nc2ncc(C(N)=O)c(Nc3cccc4nn(C)cc34)n2)ccc1OCCN1CCCC1
7.00 to 8.00
CCOC(=O)Nc1cccc(Nc2ncc(C(N)=O)c(NC3CCCC3)n2)c1
6.00 to 7.00
C[C@@H](Nc1nc(Nc2ccc(Cl)c(NC(=O)C3CC3)c2)ncc1C(N)=O)c1ccccc1
6.00 to 7.00

### Prompt pIC50 for "CN(C(=O)N1CCCC1)c1cc(Nc2ncc(C(N)=O)c(NCc3ccccc3)n2)ccc1Cl" ?
### Response 6.00 to 7.00

### Prompt pIC50 for "CC(=O)Nc1cccc(Nc2ncc(C(N)=O)c(NCc3ccc(F)cc3)n2)c1" ?
### Response 7.00 to 8.00

### Prompt pIC50 for "COCC(=O)Nc1cccc(Nc2ncc(C(N)=O)c(NCc3ccc(OC)cc3)n2)c1" ?
### Response 6.00 to 7.00

### Prompt pIC50 for "C[C@@H]1CCCN1C(=O)Nc1cccc(Nc2ncc(C(N)=O)c(NCc3ccccc3)n2)c1" ?
### Response 7.00 to 8.00

### Prompt pIC50 for "CNC(=O)Nc1cc(Nc2ncc(C(N)=O)c(NCc3cccc(Cl)c3)n2)ccc1Cl" ?
### Response 6.00 to 7.00

* * *

study.target: JAK2 (Homo sapiens)
Construct: 5 μl of catalytic domain recombinant Kinase enzyme+Tyr peptide substrate (Invitrogen, Calif.)
test.method.notes: Z'-LYTE kinase assay, JAK2 tyrosine phosphorylation activity
Method: JAK and TYK2 tyrosine phosphorylation activity is measured using the Z′-LYTE™ Technology developed by Invitrogen Corporation (Carlsbad, Calif.). For JAK1, JAK2 and JAK3 the Z′-LYTE™ Kinase Assay Kit-Tyr6 Peptide (part number PV4122) was used. […] The Z′-LYTE™ biochemical assay employs a fluorescence resonance energy transfer (FRET) coupled-enzyme format and is based on the differential sensitivity of phosphorylated and non-phosphorylated peptides to proteolitic cleavage. […]
pIC50: −log10 of the molar value.
quantity.name: pIC50

Please review the following examples before continuing.
NC(=O)c1cnc(Nc2cccc(NC(=O)[C@H]3CCCO3)c2)nc1NCc1ccccc1 [Example 202]
7.00 to 8.00
NC(=O)c1cnc(Nc2cccc(NC(=O)N3CCOCC3)c2)cc1N[C@H](CO)c1ccccc1 [Example 314]
6.00 to 7.00
CC(=O)Nc1cccc(Nc2ncc(C(N)=O)c(N[C@H](C)C(N)=O)n2)c1 [Example 91]
7.00 to 8.00

### Prompt pIC50 for CC(=O)N(C)c1cccc(Nc2ncc(C(N)=O)c(NCC3CC3)n2)c1 [Example 126] ?
### Response 7.00 to 8.00

### Prompt pIC50 for NC(=O)c1cnc(Nc2ccc(N3CCCC3)c(NC(=O)N3CCCC3)c2)nc1NCc1ccccc1 [Example 159] ?
### Response 7.00 to 8.00

### Prompt pIC50 for NC(=O)c1cnc(Nc2ccc(Cl)c(NC(=O)NC3CCC3)c2)nc1NCc1ccccc1 [Example 107] ?
### Response < 6.00
